- Test settings: in n-propanol, 318.15 K
Reported endpoint: solubility (mole fraction)
Keep the answer to the number alone.

Q) What does the data say about its solubility (mole fraction)? Entry: O=C1C2C3C=CC(C3)C2C(=O)N1O (stereo unspecified)
A) 0.0744

* * *

- Test settings: in ethyl acetate, 278.15 K
Reported endpoint: solubility (mole fraction)
API doc: respond with a numeric literal and nothing else, no unit.

Q) Requested field: solubility (mole fraction). Item: O=C1C2C3C=CC(C3)C2C(=O)N1O (stereo unspecified)
A) 0.00721

* * *

- Test settings: in ethanol, 293.15 K
Reported endpoint: solubility (mole fraction)
Answer field: number only, no words.

Q) Look up solubility (mole fraction): O=C1C2C3C=CC(C3)C2C(=O)N1O (stereo unspecified)
A) 0.051

* * *

- Test settings: in 2-propoxyethanol, 283.15 K
Reported endpoint: solubility (mole fraction)
Hey, just send me the number, nothing else.

Q) If you can, please state the reported solubility (mole fraction) value of O=C1C2C3C=CC(C3)C2C(=O)N1O (stereo unspecified) .
A) 0.0502

* * *

- Test settings: in 2-propoxyethanol, 278.15 K
Reported endpoint: solubility (mole fraction)
Enter a number only.

Q) # solubility (mole fraction) lookup, item O=C1C2C3C=CC(C3)C2C(=O)N1O (stereo unspecified)
A) 0.0446

* * *

- Test settings: in n-propanol, 323.15 K
Reported endpoint: solubility (mole fraction)
Would you mind answering with just the numeric figure?

Q) Quick one: solubility (mole fraction) of O=C1C2C3C=CC(C3)C2C(=O)N1O (stereo unspecified) ?
A) 0.0885

* * *

- Test settings: in acetonitrile, 278.15 K
Reported endpoint: solubility (mole fraction)
No unit in the answer, please; the number alone is enough.

Q) solubility (mole fraction) lookup needed for O=C1C2C3C=CC(C3)C2C(=O)N1O (stereo unspecified) , thanks.
A) 0.0165

* * *

- Test settings: in methanol, 303.15 K
Reported endpoint: solubility (mole fraction)
Enter the number alone.

Q) I would be grateful if you could share the reported solubility (mole fraction) for O=C1C2C3C=CC(C3)C2C(=O)N1O (stereo unspecified) .
A) 0.128

* * *

- Test settings: in 2-ethoxyethanol, 283.15 K
Reported endpoint: solubility (mole fraction)
The response must contain the number and no unit.

Q) Sample O=C1C2C3C=CC(C3)C2C(=O)N1O (stereo unspecified) — what was its solubility (mole fraction)?
A) 0.0774

* * *

- Test settings: in acetonitrile, 318.15 K
Reported endpoint: solubility (mole fraction)
Hey, just send me the number, nothing else.

Q) # query: solubility (mole fraction) of entry O=C1C2C3C=CC(C3)C2C(=O)N1O (stereo unspecified)
A) 0.0505

* * *

- Test settings: in methanol, 298.15 K
Reported endpoint: solubility (mole fraction)
Lab note: record the figure alone, no unit after it.

Q) Value lookup for solubility (mole fraction); key = O=C1C2C3C=CC(C3)C2C(=O)N1O (stereo unspecified)
A) 0.111

* * *

- Test settings: in 2-butoxyethanol, 308.15 K
Reported endpoint: solubility (mole fraction)
Lab note: write the figure by itself, no unit.

Q) Quick one: solubility (mole fraction) for O=C1C2C3C=CC(C3)C2C(=O)N1O (stereo unspecified) ?
A) 0.077

* * *

- Test settings: in acetonitrile, 313.15 K
Reported endpoint: solubility (mole fraction)
Please give only the number in your answer, with no unit.

Q) Return reported solubility (mole fraction); argument: O=C1C2C3C=CC(C3)C2C(=O)N1O (stereo unspecified)
A) 0.0443

* * *

- Test settings: in acetonitrile, 283.15 K
Reported endpoint: solubility (mole fraction)
Give a plain numeric answer without units written out.

Q) Recorded solubility (mole fraction) of O=C1C2C3C=CC(C3)C2C(=O)N1O (stereo unspecified) , please.
A) 0.0201

* * *

- Test settings: in 2-propoxyethanol, 293.15 K
Reported endpoint: solubility (mole fraction)
Reply with just the number.

Q) Please look up its solubility (mole fraction): O=C1C2C3C=CC(C3)C2C(=O)N1O (stereo unspecified)
A) 0.0645

* * *

- Test settings: in n-propanol, 293.15 K
Reported endpoint: solubility (mole fraction)
Write no unit; give the number alone.

Q) Which solubility (mole fraction) value is on record for O=C1C2C3C=CC(C3)C2C(=O)N1O (stereo unspecified) ?
A) 0.034

* * *

- Test settings: in 2-butoxyethanol, 303.15 K
Reported endpoint: solubility (mole fraction)

Q) Entry under review: O=C1C2C3C=CC(C3)C2C(=O)N1O (stereo unspecified) . Reported solubility (mole fraction)?
A) 0.068

* * *

- Test settings: in 2-butoxyethanol, 278.15 K
Reported endpoint: solubility (mole fraction)
Hey, just send me the number, nothing else.

Q) Item under review: O=C1C2C3C=CC(C3)C2C(=O)N1O (stereo unspecified) . Reported solubility (mole fraction)?
A) 0.035

* * *

- Test settings: in 1,4-dioxane, 293.15 K
Reported endpoint: solubility (mole fraction)
Keep the answer to the number alone.

Q) Name the recorded solubility (mole fraction) for O=C1C2C3C=CC(C3)C2C(=O)N1O (stereo unspecified) .
A) 0.0879

* * *

- Test settings: in n-propanol, 283.15 K
Reported endpoint: solubility (mole fraction)
Please respond with just the number, no unit label.

Q) Would you mind telling me what solubility (mole fraction) value was observed for O=C1C2C3C=CC(C3)C2C(=O)N1O (stereo unspecified) ?
A) 0.0231

* * *

- Test settings: in methanol, 283.15 K
Reported endpoint: solubility (mole fraction)
Give the value as a plain number.

Q) Data request, read-out solubility (mole fraction), for O=C1C2C3C=CC(C3)C2C(=O)N1O (stereo unspecified)
A) 0.0796

* * *

- Test settings: in 2-methoxyethanol, 278.15 K
Reported endpoint: solubility (mole fraction)
Note: the reply should be a number with no unit written.

Q) Bench note: what solubility (mole fraction) did O=C1C2C3C=CC(C3)C2C(=O)N1O (stereo unspecified) show?
A) 0.106

* * *

- Test settings: in 2-butoxyethanol, 293.15 K
Reported endpoint: solubility (mole fraction)

Q) Entry O=C1C2C3C=CC(C3)C2C(=O)N1O (stereo unspecified) : reported solubility (mole fraction) = ?
A) 0.0536

* * *

- Test settings: in isopropanol, 293.15 K
Reported endpoint: solubility (mole fraction)
Lab note: record just the number, no unit beside it.

Q) Field request: solubility (mole fraction) | item: O=C1C2C3C=CC(C3)C2C(=O)N1O (stereo unspecified)
A) 0.0338

* * *

- Test settings: in n-propanol, 308.15 K
Reported endpoint: solubility (mole fraction)
Could you keep your reply to the number by itself?

Q) Bench note: what solubility (mole fraction) did O=C1C2C3C=CC(C3)C2C(=O)N1O (stereo unspecified) show?
A) 0.0572

* * *

- Test settings: in methanol, 288.15 K
Reported endpoint: solubility (mole fraction)
API doc: respond with a numeric literal and nothing else, no unit.

Q) Can you look up the measured solubility (mole fraction) of O=C1C2C3C=CC(C3)C2C(=O)N1O (stereo unspecified) for me?
A) 0.0896

* * *

- Test settings: in ethanol, 283.15 K
Reported endpoint: solubility (mole fraction)
Respond with the number and no other words.

Q) I'd like to know its solubility (mole fraction). The molecule in question is O=C1C2C3C=CC(C3)C2C(=O)N1O (stereo unspecified)
A) 0.0352

* * *

- Test settings: in acetone, 278.15 K
Reported endpoint: solubility (mole fraction)
Number, no unit, nothing else.

Q) State the recorded solubility (mole fraction) for this entry: O=C1C2C3C=CC(C3)C2C(=O)N1O (stereo unspecified)
A) 0.0266

* * *

- Test settings: in ethyl acetate, 318.15 K
Reported endpoint: solubility (mole fraction)
Just the number.

Q) Quick check: solubility (mole fraction) of O=C1C2C3C=CC(C3)C2C(=O)N1O (stereo unspecified) ?
A) 0.0323

* * *

- Test settings: in methanol, 308.15 K
Reported endpoint: solubility (mole fraction)
Provide a numeric answer; units are not to be included.

Q) GET /values?readout=solubility (mole fraction)&item= O=C1C2C3C=CC(C3)C2C(=O)N1O (stereo unspecified)
A) 0.138

* * *

- Test settings: in acetone, 288.15 K
Reported endpoint: solubility (mole fraction)
Form: value (number only, do not type unit).

Q) # solubility (mole fraction) lookup, item O=C1C2C3C=CC(C3)C2C(=O)N1O (stereo unspecified)
A) 0.0374

* * *

- Test settings: in ethyl acetate, 288.15 K
Reported endpoint: solubility (mole fraction)
// no unit, no text: just the number

Q) I am curious: what solubility (mole fraction) value has been reported for O=C1C2C3C=CC(C3)C2C(=O)N1O (stereo unspecified) ?
A) 0.0112

* * *

- Test settings: in methanol, 313.15 K
Reported endpoint: solubility (mole fraction)
The answer should be written as a number, with no unit following it.

Q) If you can, please state the reported solubility (mole fraction) value of O=C1C2C3C=CC(C3)C2C(=O)N1O (stereo unspecified) .
A) 0.151

* * *

- Test settings: in acetone, 303.15 K
Reported endpoint: solubility (mole fraction)
Enter the number alone.

Q) I have this compound here, O=C1C2C3C=CC(C3)C2C(=O)N1O (stereo unspecified) , and I need its recorded solubility (mole fraction).
A) 0.0606

* * *

- Test settings: in 2-butoxyethanol, 313.15 K
Reported endpoint: solubility (mole fraction)

Q) Look up solubility (mole fraction) for this compound: O=C1C2C3C=CC(C3)C2C(=O)N1O (stereo unspecified)
A) 0.087
